# Organism: Mus musculus
# assay method text: Tested for inhibitory activity against T lymphocyte proliferation induced by PHA; showed no suppressive effect
# Assay type: functional
readout name: Activity

// solved cases for Activity follow
INSERT INTO measurements (compound, result) VALUES
  ('O=c1oc(-c2ccc(O)cc2)cc2cccc(O)c12', 'no suppressive effect'),
  ('O=C1OC(c2ccc(O)c(O)c2)Cc2cc(O)cc(O)c21 (stereo not drawn)', 'no suppressive effect'),
  ('O=C1O/C(=C\c2ccc(O)c(O)c2)c2cccc(O)c21', 'no suppressive effect'),
  ('O=C(O)c1c(O)cccc1/C=C/c1ccc(O)c(O)c1', 'no suppressive effect');

I'm hoping you can list Activity for every compound here, please.
1. O=C1OC(c2ccc(O)cc2)Cc2cccc(O)c21 (stereo not drawn)
2. O=C1OC(c2ccc(O)c(O)c2)Cc2cccc(O)c21 (stereo not drawn)
3. O=C1OC(c2ccc(O)cc2)Cc2cc(O)cc(O)c21 (stereo not drawn)

1: no suppressive effect; 2: no suppressive effect; 3: no suppressive effect

Quickly give me recorded Activity for O=c1oc(-c2ccc(O)c(O)c2)cc2cc(O)cc(O)c12
no suppressive effect
